Test: In vivo pharmacokinetic study
Set-up: species or system mouse
Conditions: female, C57BL/6, mouse, plasma, ip, 10 mg/kg
ASSAY READOUT: AUC

[[record]]
molecule = "CC(C)Nc1ccnc(Nc2cccc(-c3cccnc3)c2)n1 [Compound 5e]"
endpoint_result = "0.953 µM·h"


###

Experiment: In vivo pharmacokinetic study
Parameters: species or system mouse
Conditions: female, C57BL/6, mouse, plasma, ip, 3 mg/kg, T1/2, mice
ASSAY READOUT: half-life (min)

[[record]]
cpd_smiles = "CC(C)Nc1ccnc(Nc2cccc(-c3cccnc3)c2)n1"
endpoint_result = 13.8


###

The following compounds are listed with their measured IC50 values.
Tested on: MOLM13^FLT3-ITD cells
Experiment: MOLM13 cell viability
Format: cell-based
Conditions: Homo sapiens, MOLM-13, 72 h, read-out: MOLM13^FLT3-ITD IC50
ASSAY READOUT: IC50 (nM)

[[record]]
cpd_smiles = "CC(C)Nc1ccnc(Nc2ccccc2-c2ccccc2)n1"
assay_readout = "IC50"
modifier = ">"
endpoint_result = 10000

[[record]]
cpd_smiles = "c1cncc(-c2cccc(Nc3nccc(NC4CCCCC4)n3)c2)c1"
assay_readout = "IC50"
modifier = "="
endpoint_result = 620

[[record]]
cpd_smiles = "CC(C)Nc1ccnc(Nc2cccc(-c3cccnc3)c2)n1"
assay_readout = "IC50"
modifier = "="
endpoint_result = 136

[[record]]
cpd_smiles = "CC(C)Nc1ccnc(Nc2cccc(-c3cnccn3)c2)n1"
assay_readout = "IC50"
modifier = "="
endpoint_result = 45

